Just for reference, ChEMBL document CHEMBL1201862 is where these values come from.

Form field: GI50 (one value per entry).
tested on: NCI-H226; test: NCI tumour cell line growth inhibition, 48 h
Active and inactive are the calls of the source. Cut-off read from the data, not from the text of the source: active = GI50 up to about 1.1 µM and inactive = higher.

Give GI50 for this entry on NCI-H226: CCCCN(CCCC)CC(=O)c1ccc2cc(Cl)c3ccccc3c2c1 25.3 µM (inactive)

Retrieve GI50 on NCI-H226; query N#Cc1ccc(C2Oc3ccc(Cl)cc3C=C2[N+](=O)[O-])cc1 (centres undefined) 10.6 µM (inactive)

Please indicate recorded GI50 of C[C@@H](CO)C1=CC(C#C[Si](C)(C)C)N(C(=O)Oc2ccccc2)c2ccccc21 (some centres undefined) measured with NCI-H226. 20 µM (inactive)

New cases:
For NCI-H226, give the measured GI50 of the entry O=C(CN(c1ccc(S(=O)(=O)O)cc1)c1ccc(S(=O)(=O)O)cc1)Nn1cnc2ccc(S(=O)(=O)N(c3ccc(S(=O)(=O)O)cc3)c3ccc(S(=O)(=O)O)cc3)cc2c1=O > 100 µM (inactive)

Determine reported GI50 for CN1Cc2c(ccc3c2OCO3)[C@@H]2[C@H](O)Cc3cc4c(cc3[C@@H]21)OCO4 ; test system: NCI-H226. 3.01 µM (inactive)

----------
tested on: UACC-257; test: NCI tumour cell line growth inhibition, 48 h
Calls of active or inactive are those of the source. Rule as the data show it: active = GI50 up to about 1.1 µM and inactive = higher.
# maps each entry to its GI50

Study these solved cases before continuing.
Supply recorded GI50 for Fc1ccc(/C(=N/Cc2ccccc2)N2CCOCC2)cc1 here. > 100 µM (inactive)

Entry CC1(C)CCC[C@]2(C)[C@@H]1CC[C@@]13O[C@@H]1C1=C(CO)C(=O)O[C@]14O[C@@H]4[C@@H]23 needs its GI50 filled in; supply it. 14 µM (inactive)

***
Answer with reported GI50 of C[C@@H]1CC[C@@]2(C)[C@H](C)/C(=C\COC(=O)/C=C/c3ccc(O)c(O)c3)CC[C@@]12C [NAVICULYL CAFFEATE] 11.8 µM (inactive)

Specify GI50 for O=C1CCC23CC(C=CC=C12)n1c(=O)n(-c2ccccc2)c(=O)n13 (configuration not stated) and stop. > 100 µM (inactive)

Determine its reported GI50: COc1nc(C)nc2c1ncn2Cc1ccccc1 > 100 µM (inactive)

Report measured GI50; entry is C/C=C(\CCOS(=O)(=O)c1ccc(C)cc1)[Si](C)(C)C > 100 µM (inactive)

Complete the entry with GI50 for O=S(=O)(c1ccccc1)n1cnc(CCc2ccccc2)n1 > 100 µM (inactive)

Identify GI50 associated with the compound COc1cc([C@H]2c3cc4c(cc3[C@H](NCc3ccc([N+](=O)[O-])cc3)C3COC(=O)[C@H]32)OCO4)cc(OC)c1O (some centres not stated) 7.96 µM (inactive)

Specify GI50 for COc1cc([C@@H]2c3cc4c(cc3[C@@H](Nc3ccc(/N=C\c5ccc(C(=O)O[C@@H](C(=O)O[C@H]6C[C@@]7(O)[C@@H](OC(=O)c8ccccc8)[C@@H]8[C@]9(OC(C)=O)CO[C@@H]9C[C@H](O)[C@@]8(C)C(=O)[C@H](OC(C)=O)C(=C6C)C7(C)C)[C@@H](NC(=O)c6ccccc6)c6ccccc6)cc5)cc3)[C@H]3COC(=O)[C@H]23)OCO4)cc(OC)c1O and stop. 28.6 µM (inactive)

----------
GI50 overview
test system: OVCAR-4; experiment: NCI tumour cell line growth inhibition, 48 h
Active and inactive are the calls of the source. Rule as the data show it: active = GI50 up to about 1.1 µM and inactive = higher.

Complete the entry with GI50 for Clc1ccc(-c2ccc(-c3nnc(COc4ccc(OCc5nnc(-c6ccc(-c7ccc(Cl)cc7Cl)o6)o5)c(Cl)c4)o3)o2)c(Cl)c1 > 100 µM (inactive)

Give the reported GI50 for this compound. N=C(N)NS(=O)(=O)c1ccc(Nc2c3ccccc3nc3c(C(=O)Nc4ccc(S(N)(=O)=O)cc4)cccc23)cc1 > 100 µM (inactive)

Assign GI50 to the following record: CC1C2Cc3ccc(O)cc3C1(C)CCN2C (centres undefined) > 100 µM (inactive)

Kindly indicate its recorded GI50. Item: CCCCN(CCCC)CC(=O)c1ccc2cc(Cl)c3ccccc3c2c1 24.2 µM (inactive)
